System: HSP70
Assay info: MaCRA HCS HSP70 granule assay, heat shock 41° C.
Assay type: cell-based
Details: Homo sapiens, HeLa, read-out: EC50 of HSP granule area
Measurement kind: EC50 (nM)
Provide the reading as a plain figure in nM.

IN: Fill in the blank: the reported EC50 of CC1=C(O)C(=O)C=C2C1=CC=C1[C@@]2(C)CC[C@@]2(C)[C@@H]3C[C@](C)(C(=O)O)CC[C@]3(C)CC[C@]12C is ____.
OUT: 650

* * *

Test system: HSF1
Assay info: MaCRA HCS HSF1 granule assay, heat shock 41° C.
Type: cell-based
Details: Homo sapiens, HeLa, read-out: EC50 of HSF1 intensity CV
Experimental: This experiment was directed to developing of a HSF1/HSP70 high-content screening (HCS) assay for screening HSF1 activators. HeLa cells were pretreated with a compound (celastrol) one hour before heat shock at 41° C. for two hours. The dilution in Dulbecco's Modified Eagle's Medium (DMEM) was 200-fold resulting in a final concentration of 30 μM for screening. […]
Measurement kind: pEC50
// pEC50 is dimensionless: -log10 of concentration (M)

IN: Need pEC50 of CC1=C(O)C(=O)C=C2C1=CC=C1[C@@]2(C)CC[C@@]2(C)[C@@H]3C[C@](C)(C(=O)O)CC[C@]3(C)CC[C@]12C , thanks.
OUT: 5.88

Where these numbers come from: patent US20110166038A1
